The measurements presented in this section are drawn from PubChem BioAssay AID624129.

Biological target: C-X-C chemokine receptor type 6 (Homo sapiens) (UniProt O00574)
Sequence (O00574 whole entry, looked up): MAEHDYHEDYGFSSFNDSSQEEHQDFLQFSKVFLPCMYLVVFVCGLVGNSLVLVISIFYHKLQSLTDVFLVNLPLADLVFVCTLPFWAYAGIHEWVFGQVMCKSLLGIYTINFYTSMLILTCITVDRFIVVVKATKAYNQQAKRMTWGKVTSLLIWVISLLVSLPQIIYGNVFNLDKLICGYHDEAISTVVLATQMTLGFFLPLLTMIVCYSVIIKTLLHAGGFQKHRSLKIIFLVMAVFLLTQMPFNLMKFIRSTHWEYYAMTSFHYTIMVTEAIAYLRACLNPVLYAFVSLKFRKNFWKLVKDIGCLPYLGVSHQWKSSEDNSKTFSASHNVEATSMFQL
Experiment: potency against CXCR6 with APJ panel – cell-based, beta-arrestin, DiscoveRx, uHTS hits, dose response (AID 624129)
Conditions: CXCR6 beta-arrestin (DiscoveRx) antagonist cell assay, CXCR6, dose range 1, mean IC50 across replicates
Please go through the items and note down their IC50.

Consider the worked cases shown below.
compound	system_under_test	IC50
CCS(=O)(=O)c1ncc(Cl)c(C(=O)Nc2ccc(S(=O)(=O)N3CCCC(C)C3)cc2)n1 (stereo unspecified)	C-X-C chemokine receptor type 6 (Homo sapiens) (UniProt O00574)	9.06 µM
Cc1ccccc1CS(=O)(=O)c1nnc([C@H](Cc2ccccc2)NC(=O)OC(C)(C)C)o1	C-X-C chemokine receptor type 6 (Homo sapiens) (UniProt O00574)	15.9 µM
O=[N+]([O-])c1c(Nc2ccccc2O)cc(Cl)c2nonc12	C-X-C chemokine receptor type 6 (Homo sapiens) (UniProt O00574)	13 µM
Oc1cccc2ccc(/C=C/c3c(F)cccc3Cl)nc12	C-X-C chemokine receptor type 6 (Homo sapiens) (UniProt O00574)	5.43 µM
O=C1CN(C(=O)CSc2nc3cc(Cl)ccc3c(=O)n2Cc2ccccc2)c2ccccc2N1	C-X-C chemokine receptor type 6 (Homo sapiens) (UniProt O00574)	8.57 µM
CC(=O)OCCCNc1cc(Sc2nc3ccccc3s2)c2nonc2c1[N+](=O)[O-]	C-X-C chemokine receptor type 6 (Homo sapiens) (UniProt O00574)	8.69 µM
CC(=O)OC1C2(CC3N4C(=O)C5(CO)SSC4(CC31O)C(=O)N5C)OC(C)C(C)(C)C2=O (stereo unspecified)	C-X-C chemokine receptor type 6 (Homo sapiens) (UniProt O00574)	0.724 µM
CCC1=NN(C(=O)c2ccc([N+](=O)[O-])cc2)C(O)(c2ccccc2)C1 (stereo unspecified)	C-X-C chemokine receptor type 6 (Homo sapiens) (UniProt O00574)	44.8 µM
CCOc1ccc(NCC(=O)c2ccc(C)cc2)cc1	C-X-C chemokine receptor type 6 (Homo sapiens) (UniProt O00574)	20.7 µM
CC[N+]1(C)CCC(O)(/C=C/c2ccccc2)C(C(=O)/C=C/c2ccccc2)C1 (stereo unspecified)	C-X-C chemokine receptor type 6 (Homo sapiens) (UniProt O00574)	18.2 µM

I would be grateful if you could provide IC50 for each of the following entries.
1. CS(=O)(=O)c1ncc(Cl)c(C(=O)Nc2ccc(OC(F)F)cc2)n1
2. O=[N+]([O-])c1ccc(S(=O)Cc2ccccc2)c([N+](=O)[O-])c1 (stereo unspecified)
3. CCOC(=O)c1c(SCCN2CCCCC2)n(-c2ccccc2)c(=S)n(-c2ccccc2)c1=O
4. Cc1[nH][nH]c(=O)c1C(c1c(C)[nH][nH]c1=O)c1cn(Cc2ccc(F)cc2)c2ccccc12
5. CCOc1ccc(/C=C/[N+](=O)[O-])c2ccccc12
6. O=[N+]([O-])c1cc(-c2ncccn2)c([N+](=O)[O-])s1
7. Cc1ccc(NC(=S)N/N=C/c2ccc([N+](=O)[O-])s2)cc1
8. C/C(=N\NC(=O)C1COc2ccccc2O1)c1ccccn1 (stereo unspecified)

[out]
["13.3 µM", "> 80 µM", "8.58 µM", "28.2 µM", "17.2 µM", "24 µM", "7.46 µM", "15.5 µM"]

I would be grateful if you could provide IC50 for each of the following entries.
1. COc1ccc(OC)c(NC(=O)c2nc(S(=O)(=O)Cc3ccccc3)ncc2Cl)c1
2. Oc1c(Cl)cc(Cl)c2cccnc12
3. COc1ccc2nc(-n3c(O)c(C4=c5ccccc5=NC4=O)[nH]c3=S)sc2c1
4. COC(=O)/C=C\C(=O)Nc1cccc([N+](=O)[O-])c1
5. C=C1C(=O)c2sccc2C(c2ccc(OC)c(OC)c2)C1COC(C)=O (stereo unspecified)
6. Oc1c(I)cc(Cl)c2cccnc12

[out]
8.6 µM
4.17 µM
30.4 µM
16.6 µM
6.19 µM
4.36 µM
